tested on: Human immunodeficiency virus 1; test: Antiviral activity against wild-type HIV-1 NL4-3 infected in human TZM-bl cells using virus particles harvested from 18 hrs drug-treated HEK293T cells harboring viral transfection assessed as reduction in viral infection measured after 48 hrs in TZM-bl cells by luciferase based assay; format: functional, organism-based; details: Human immunodeficiency virus 1, NL4-3, TZM-bl
The following compounds are shown together with reported EC50 values.

Mol	EC50
CCOP(=O)(COc1ccc(C[C@H](NC(=O)O[C@H]2CO[C@H]3OCC[C@H]32)[C@H](O)CN(C[C@@H](C)CC)S(=O)(=O)c2ccc(N)cc2)cc1)OCC	0.0229 µM
CCOP(=O)(COc1ccc(C[C@H](NC(=O)O[C@H]2CO[C@H]3OCC[C@H]32)[C@H](O)CN(CC(CC)CC)S(=O)(=O)c2ccc3ncsc3c2)cc1)OCC	0.0107 µM
CCOP(=O)(COc1ccc(C[C@H](NC(=O)O[C@H]2CO[C@H]3OCC[C@H]32)[C@H](O)CN(C[C@@H](C)CC)S(=O)(=O)c2ccc(CO)cc2)cc1)OCC	0.0273 µM
CCOP(=O)(COc1ccc(C[C@H](NC(=O)O[C@H]2CO[C@H]3OCC[C@H]32)[C@H](O)CN(CC(CC)CC)S(=O)(=O)c2ccc(N)cc2)cc1)OCC	0.016 µM
CC(C)CN(C[C@@H](O)[C@H](Cc1ccccc1)NC(=O)O[C@H]1CO[C@H]2OCC[C@H]21)S(=O)(=O)c1ccc(N)cc1	0.00773 µM
CCOP(=O)(COc1ccc(C[C@H](NC(=O)O[C@H]2CO[C@H]3OCC[C@H]32)[C@H](O)CN(CC(C)C)S(=O)(=O)c2ccc(OC)cc2)cc1)OCC	0.0118 µM
CCOP(=O)(COc1ccc(C[C@H](NC(=O)O[C@H]2CO[C@H]3OCC[C@H]32)[C@H](O)CN(CC(CC)CC)S(=O)(=O)c2ccc(OC)cc2)cc1)OCC	0.00515 µM
CCOP(=O)(COc1ccc(C[C@H](NC(=O)O[C@H]2CO[C@H]3OCC[C@H]32)[C@H](O)CN(CC(C)C)S(=O)(=O)c2ccc3ncsc3c2)cc1)OCC	0.0104 µM
CCOP(=O)(COc1ccc(C[C@H](NC(=O)O[C@H]2CO[C@H]3OCC[C@H]32)[C@H](O)CN(C[C@@H](C)CC)S(=O)(=O)c2ccc(OC)cc2)cc1)OCC	0.00956 µM
CCOP(=O)(COc1ccc(C[C@H](NC(=O)O[C@H]2CO[C@H]3OCC[C@H]32)[C@H](O)CN(CC(C)C)S(=O)(=O)c2ccc3c(c2)OCO3)cc1)OCC	0.00567 µM
CCOP(=O)(COc1ccc(C[C@H](NC(=O)O[C@H]2CO[C@H]3OCC[C@H]32)[C@H](O)CN(CC(CC)CC)S(=O)(=O)c2ccc(CO)cc2)cc1)OCC	0.017 µM
CCOP(=O)(COc1ccc(C[C@H](NC(=O)O[C@H]2CO[C@H]3OCC[C@H]32)[C@H](O)CN(C[C@@H](C)CC)S(=O)(=O)c2ccc3ncsc3c2)cc1)OCC	0.00993 µM
CCOP(=O)(COc1ccc(C[C@H](NC(=O)O[C@H]2CO[C@H]3OCC[C@H]32)[C@H](O)CN(CC(CC)CC)S(=O)(=O)c2ccc3c(c2)OCO3)cc1)OCC	0.00311 µM
